# SYSTEM UNDER TEST: human recombinant 5-HT2C receptor (Homo sapiens (Human), UniProt P28335)
# Sequence (P28335 33-458): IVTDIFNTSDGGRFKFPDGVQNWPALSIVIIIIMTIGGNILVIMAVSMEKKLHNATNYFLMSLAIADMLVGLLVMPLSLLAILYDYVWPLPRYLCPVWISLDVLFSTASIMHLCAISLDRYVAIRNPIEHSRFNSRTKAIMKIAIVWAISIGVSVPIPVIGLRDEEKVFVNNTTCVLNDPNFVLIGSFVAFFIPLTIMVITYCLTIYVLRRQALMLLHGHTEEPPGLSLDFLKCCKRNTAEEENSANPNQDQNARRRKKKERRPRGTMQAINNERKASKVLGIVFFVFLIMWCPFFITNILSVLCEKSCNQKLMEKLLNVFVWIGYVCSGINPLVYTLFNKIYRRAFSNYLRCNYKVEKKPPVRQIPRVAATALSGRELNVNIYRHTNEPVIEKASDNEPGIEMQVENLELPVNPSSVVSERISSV
# EXPERIMENTAL PROTOCOL: 5-HT2C receptor binding inhibition test ([3H]-Mesulergine)
# EXPERIMENTAL PARAMETERS: Jump-In HEK cell membrane, 37° C. 2 hours, read-out: h-5-HT2C Ki
pKi: −log10 of the molar value.
MEASURE: pKi

Field: example entries. Status: answers known.
CC(C)COc1ccc(CN(Cc2ccc(F)cn2)C2=NC(=O)C3(CCN(C)CC34CC4)N2)cc1 (racemic)    7.00 to 8.00
Cc1nc(CN(Cc2cc3ccccc3s2)C2=NOC3(CCN(C)CC3)N2)co1    > 8.00
CCCOc1ccc(CC2=NOC3(CCN(C)CC34CC4)N2Cc2ccn(C)n2)cc1 (single isomer, unassigned) [Compound I-044]    > 8.00
Cc1nc(CN(Cc2ccc3ccccc3c2)C2=NOC3(CCN(C)CC3)N2)co1    > 8.00
CC(C)COc1ccc(CN(Cc2coc(C(F)F)n2)C2=NOC3(CCN(C)CC3)N2)cc1    > 8.00

Looking up `CCCc1ccc(CN(Cc2coc(C)n2)C2=NOC3(CCN(C)CC3)N2)c(F)c1` , I found its pKi recorded as > 8.00

pKi reported for this compound CCCOc1ccc(CC2=NOC3(CCN(C)CC34CC4)N2Cc2ccc(F)cn2)cc1 (stereo not shown) : > 8.00

Record `CC(C)CNc1ccc(CN(Cc2ccn(C)n2)C2=NOC3(CCN(C)CC3)N2)cc1` , field pKi: 7.00 to 8.00

Form field pKi, entry `CC(C)COc1ccc(CN(Cc2ccn(C)n2)C2=NOC3(CCN(C)CC3)N2)cc1` : > 8.00

Value of pKi reported for the compound `Cc1cnc(CN(Cc2ccc(OCC(C)C)cc2)C2=NOC3(CCN(C)CC3)N2)o1` is 7.00 to 8.00

Lab note: measured pKi of `COc1ccc2oc(CN(Cc3coc(C)n3)C3=NOC4(CCN(C)CC4)N3)nc2c1` was 7.00 to 8.00

Record `Cc1cc(CN(Cc2ccc(OCC(C)C)cc2)C2=NOC3(CCN(C)CC3)N2)on1` , field pKi: 6.30 to 7.00

* * *

Listing of recorded pKi by entry.
# SYSTEM UNDER TEST: human recombinant 5-HT2A receptor (Homo sapiens (Human), UniProt P28223)
# Sequence (P28223 whole entry): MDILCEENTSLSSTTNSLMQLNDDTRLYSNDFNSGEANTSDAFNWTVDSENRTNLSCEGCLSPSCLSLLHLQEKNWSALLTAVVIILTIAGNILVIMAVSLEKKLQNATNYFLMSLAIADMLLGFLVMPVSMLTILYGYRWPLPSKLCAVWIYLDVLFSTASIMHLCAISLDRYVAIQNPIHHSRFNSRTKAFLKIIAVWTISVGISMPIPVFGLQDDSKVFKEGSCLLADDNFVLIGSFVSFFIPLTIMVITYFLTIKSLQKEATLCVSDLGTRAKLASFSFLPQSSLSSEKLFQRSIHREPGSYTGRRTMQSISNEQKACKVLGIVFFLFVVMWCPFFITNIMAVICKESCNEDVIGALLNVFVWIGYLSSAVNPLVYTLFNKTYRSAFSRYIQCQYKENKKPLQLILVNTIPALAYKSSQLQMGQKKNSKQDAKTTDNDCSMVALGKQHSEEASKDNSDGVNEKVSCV
# EXPERIMENTAL PROTOCOL: 5-HT2A receptor binding inhibition test ([3H]-Ketanserin)
# EXPERIMENTAL PARAMETERS: Jump-In HEK cell membrane, 25° C. 1.5 hours, read-out: h-5-HT2A Ki
pKi: −log10 of the molar value.

COc1ccc(CC2=NOC3(CCN(C)CC34CC4)N2Cc2cc(C)n(C)n2)cc1 (racemic)    > 8.00
CC(C)COc1ccc(CN(Cc2cocn2)C2=NOC3(CCN(C)CC3)N2)cc1    7.00 to 8.00
CCCOc1ccc(CC2=NOC3(CCN(C)CC3)N2Cc2ccc(F)cn2)cc1    > 8.00

With those in mind, consider the next compound.
pKi reading for `Cc1nc(CN(Cc2cn3ccccc3n2)C2=NOC3(CCN(C)CC3)N2)co1` : 7.00 to 8.00

* * *

List of Ki values.
# SYSTEM UNDER TEST: human recombinant 5-HT2A receptor (Homo sapiens (Human), UniProt P28223)
# EXPERIMENTAL PROTOCOL: 5-HT2A receptor binding inhibition test ([3H]-Ketanserin)
# EXPERIMENTAL PARAMETERS: Jump-In HEK cell membrane, 25° C. 1.5 hours, read-out: h-5-HT2A Ki

Here are 10 compounds together with their reported answers.
Cc1nc(CN(Cc2ccc(OCC(F)(F)C(F)F)cc2)C2=NOC3(CCN(C)CC3)N2)co1    < 10 nM
Cc1nc(CN(Cc2cnc3ccccc3c2)C2=NOC3(CCN(C)CC3)N2)co1    10 to 100 nM
COc1ccc(CNC2=NOC3(CCN(C)CC3)N2Cc2ccc(F)cc2)cc1    100 to 500 nM
CCCOc1ccc(CC2=NOC3(CCNCC34CC4)N2Cc2ccn(C)n2)cc1 (racemic)    < 10 nM
CCCOc1ccc(CC2=NOC3(CCN(C)CC34CC4)N2Cc2ccn(C)n2)cc1 (single isomer, unassigned) [Compound I-044]    < 10 nM
CCCCOc1ccc(CN(Cc2cnn(C)n2)C2=NOC3(CCN(C)CC3)N2)c(F)c1    < 10 nM
CCCCOc1ccc(CN(Cc2coc(C)n2)C2=NOC3(CCN(C)CC3)N2)cc1    < 10 nM
Cc1nc(CN(Cc2ccc3c(c2)nnn3C)C2=NOC3(CCN(C)CC3)N2)co1    100 to 500 nM
Cc1nc(CN(Cc2ccc(OCC(C)C)cc2)C2=NOC3(CCN(C)CC3)N2)cs1    < 10 nM
CCCOc1ccc(CN(Cc2ccn(C)n2)C2=NOC3(CCN(C)CC3)N2)cc1    < 10 nM

Value of measured Ki for the entry `Cc1cnc(CN(Cc2ccc(OCC(C)C)cc2)C2=NOC3(CCN(C)CC3)N2)o1` : 10 to 100 nM

Recorded Ki (compound `CN1CCC2(CC1)NC(N(CC(=O)Nc1ccc(Cl)cc1)Cc1ccn(C)n1)=NO2` ): 100 to 500 nM

Per the records, this compound ( `CC(C)COc1ccc(CN(Cc2cnn(C)n2)C2=NOC3(CCN(C)CC3)N2)cc1F` ) has Ki equal to < 10 nM

Quick note, Ki for `Cc1nc(CN(Cc2ccc(OCC(C)C)cc2)C2=NOC3(CCN(C)CC3)N2)c(C)o1` landed at 10 to 100 nM

Note to self: Ki recorded for `Cc1ccc(CN(Cc2ccc(OCC(C)C)cc2)C2=NC(=O)C3(CCN(C)CC3)N2)nc1` was < 10 nM

Per the records, this compound ( `CC(C)COc1ccc(CN(Cc2ccccn2)C2=NOC3(CCN(C)CC3)N2)cc1` ) has Ki equal to < 10 nM

What the record says about `Cc1ncc(CN(Cc2ccc(OCC(C)C)cc2)C2=NOC3(CCN(C)CC3)N2)o1` : Ki is < 10 nM

For record `CC(C)COc1ccc(CN(Cc2ccn(C(F)F)n2)C2=NOC3(CCN(C)CC3)N2)cc1` the listed Ki is < 10 nM
